target.or.test.system: T1, RXFP1 (LGR7) receptor, on stably transfected HEK-293T cells (UniProt Q9HBX9 1-757, limits assumed)
T1 sequence (looked up): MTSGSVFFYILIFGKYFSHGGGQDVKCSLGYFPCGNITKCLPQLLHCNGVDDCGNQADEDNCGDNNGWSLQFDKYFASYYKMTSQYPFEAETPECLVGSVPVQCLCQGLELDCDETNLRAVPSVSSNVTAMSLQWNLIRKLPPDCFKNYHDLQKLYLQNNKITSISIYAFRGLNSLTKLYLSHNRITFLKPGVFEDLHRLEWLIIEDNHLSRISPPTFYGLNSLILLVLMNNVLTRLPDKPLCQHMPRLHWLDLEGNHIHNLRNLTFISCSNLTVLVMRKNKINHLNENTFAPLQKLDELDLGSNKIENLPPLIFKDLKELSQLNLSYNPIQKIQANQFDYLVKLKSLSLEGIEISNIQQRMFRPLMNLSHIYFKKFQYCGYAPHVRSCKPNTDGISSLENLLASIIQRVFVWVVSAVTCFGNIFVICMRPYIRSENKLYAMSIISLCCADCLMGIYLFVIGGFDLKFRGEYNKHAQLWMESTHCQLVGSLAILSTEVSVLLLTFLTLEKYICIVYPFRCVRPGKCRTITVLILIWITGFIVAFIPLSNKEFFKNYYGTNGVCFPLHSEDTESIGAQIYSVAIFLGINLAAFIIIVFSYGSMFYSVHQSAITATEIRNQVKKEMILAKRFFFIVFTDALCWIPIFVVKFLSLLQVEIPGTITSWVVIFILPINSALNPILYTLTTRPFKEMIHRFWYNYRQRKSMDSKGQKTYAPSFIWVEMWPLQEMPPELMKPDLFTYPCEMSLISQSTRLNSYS
test.summary: cell-based or functional assay
Ends that are not written are not given here.
metric: cAMP pEC50 (log M)
State the answer as a number, implicitly in log M.

For this binder ( VIKLCGRELVRAQIAICGMSTWSKRSL-NH2 (not fully specified; printed as VIKLCGRELVRAQIAICGMSTWSKRSL-NH2; also: oxidised (ox), disulfide pattern not described, also called B7-33ox) [Native B7-33] ), measured cAMP pEC50 is 5.11

Measured cAMP pEC50 of Ac-VIKLSGRELVRAQIAISGMSTWSKRSL-NH2 [AcB7-33 C11.23S] : 5.4

Notebook: VIKLSGRELVRAQIAISGMSTWSKRSL-NH2 (also called single chain B7-33 C11.23S peptide) [Modified B7-33 (B7-33 C11.23S)] , cAMP pEC50 read as 5.12

# credit: patent US20170037106A1
